target: T1, Claudin 18.2 (CLDN18.2), expressed on CHOS-CLDN 18.2 / HEK293-CLDN 18.2 / HCC827-CLDN 18.2 cells (human, UniProt P56856-2 1-261); test: FACS, CHOS-CLDN18.2 cells, 0.313 µg/ml
T1 construct: whole, on cells; The species is not repeated for the CHOS-CLDN 18.2 cells; also called claudin-18A2
experimental_readout: FACS reading

So, QP024025 (antibody, human IgG1, V domains shown, also called IMAB362; 175D10(IMAB362)) VH: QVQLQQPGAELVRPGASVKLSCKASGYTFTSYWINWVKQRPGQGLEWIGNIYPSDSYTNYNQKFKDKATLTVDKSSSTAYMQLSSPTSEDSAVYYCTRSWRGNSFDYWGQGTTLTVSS VL: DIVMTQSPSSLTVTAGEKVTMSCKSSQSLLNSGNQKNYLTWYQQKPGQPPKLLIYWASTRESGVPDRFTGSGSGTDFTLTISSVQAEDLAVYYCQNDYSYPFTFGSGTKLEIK ? Its FACS reading was 51000
